molecular target: BRD3 (Homo sapiens); test: Fluorescence anisotropy (FA) binding assay, BRD3; settings: BRD3; protein 125 nM; read-out: IC50 range (FA assay) BRD3, BRD-N monomers
Sequence (Q15059 whole entry): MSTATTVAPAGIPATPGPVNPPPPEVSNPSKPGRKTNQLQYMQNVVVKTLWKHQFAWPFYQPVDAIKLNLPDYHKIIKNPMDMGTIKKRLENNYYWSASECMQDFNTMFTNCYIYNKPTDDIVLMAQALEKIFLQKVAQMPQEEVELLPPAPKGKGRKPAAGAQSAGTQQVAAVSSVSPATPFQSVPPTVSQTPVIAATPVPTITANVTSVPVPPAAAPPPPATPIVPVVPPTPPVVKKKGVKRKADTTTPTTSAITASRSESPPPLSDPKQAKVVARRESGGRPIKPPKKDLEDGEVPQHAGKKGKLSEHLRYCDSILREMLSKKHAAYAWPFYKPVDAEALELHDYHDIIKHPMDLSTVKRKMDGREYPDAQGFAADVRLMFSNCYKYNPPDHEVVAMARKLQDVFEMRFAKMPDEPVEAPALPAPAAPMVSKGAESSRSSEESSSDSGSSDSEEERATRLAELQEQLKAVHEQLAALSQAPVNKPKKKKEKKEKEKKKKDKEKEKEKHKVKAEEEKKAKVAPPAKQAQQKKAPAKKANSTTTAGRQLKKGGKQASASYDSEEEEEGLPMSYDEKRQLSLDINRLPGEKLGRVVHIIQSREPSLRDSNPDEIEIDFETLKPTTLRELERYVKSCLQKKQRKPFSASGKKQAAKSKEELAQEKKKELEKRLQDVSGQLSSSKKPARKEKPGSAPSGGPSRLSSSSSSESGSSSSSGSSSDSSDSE
Quantity Name: IC50

[[record]]
chem_smiles = "COc1ccc2c(c1)C(c1ccc(Cl)cc1)=N[C@@H](CC(=O)NCCNC(=O)Cc1ccc(O)c(O)c1)c1nnc(C)n1-2"
reported_result = "50 to 1000 nM"

[[record]]
chem_smiles = "COc1ccc2c(c1)C(c1ccc(Cl)cc1)=N[C@@H](CC(=O)NCCc1cccc(O)c1O)c1nnc(C)n1-2"
reported_result = "50 to 1000 nM"


Shifting focus to the molecule that follows.
Consider the molecule CCNC(=O)C[C@@H]1N=C(c2ccc(Cl)cc2)c2cc(OCC(=O)Nc3cccc(O)c3O)ccc2-n2c(C)nnc21 and give its measured IC50.
1000 to 30000 nM

====

Target: BRD4 (Homo sapiens, UniProt O60885)
Assay: Fluorescence anisotropy (FA) binding assay, BRD4
Settings: BRD4; protein 125 nM; read-out: IC50 range (FA assay) BRD4, BRD-N monomers
Procedure: Fluorescence Anisotropy (FA) Binding Assays. FA assays were performed as described in Chung et al., J. Med Chem., 2011 54(11): 3827-38 except that protein concentrations were 125 nM and plates were read on a Spectramax M5 plate reader.
Measured IC50 values are reported for all entries that follow.

Here is how some compounds turned out for IC50.
[[record]]
chem_smiles = "COc1ccc2c(c1)C(c1ccc(Cl)cc1)=N[C@@H](CC(=O)NCCCCCNC(=O)c1cccc(O)c1O)c1nnc(C)n1-2"
assay_system = "BRD4 (Homo sapiens, UniProt O60885)"
quantity_name = "IC50"
reported_result = "50 to 1000 nM"

[[record]]
chem_smiles = "COc1ccc2c(c1)C(c1ccc(Cl)cc1)=N[C@@H](CC(=O)NCCc1ccc(O)c(O)c1)c1nnc(C)n1-2"
assay_system = "BRD4 (Homo sapiens, UniProt O60885)"
quantity_name = "IC50"
reported_result = "50 to 1000 nM"

[[record]]
chem_smiles = "CCNC(=O)C[C@@H]1N=C(c2ccc(Cl)cc2)c2cc(OCCCNC(=O)c3cccc(O)c3O)ccc2-n2c(C)nnc21"
assay_system = "BRD4 (Homo sapiens, UniProt O60885)"
quantity_name = "IC50"
reported_result = "50 to 1000 nM"


Consider the compound CCNC(=O)C[C@@H]1N=C(c2ccc(Cl)cc2)c2cc(OCCCNC(=O)c3ccc(O)c(O)c3)ccc2-n2c(C)nnc21 and give its measured IC50.
1000 to 30000 nM

Consider the compound CCNC(=O)C[C@@H]1N=C(c2ccc(Cl)cc2)c2cc(OCCCCC(=O)Nc3ccc(O)c(O)c3)ccc2-n2c(C)nnc21 and give its measured IC50.
50 to 1000 nM

Consider the compound COc1ccc2c(c1)C(c1ccc(Cl)cc1)=N[C@@H](CC(=O)NCc1cccc(O)c1O)c1nnc(C)n1-2 and give its measured IC50.
50 to 1000 nM

Consider the compound COc1ccc2c(c1)C(c1ccc(Cl)cc1)=N[C@@H](CC(=O)NCCNC(=O)Cc1ccc(O)c(O)c1)c1nnc(C)n1-2 and give its measured IC50.
50 to 1000 nM

Consider the compound COc1ccc2c(c1)C(c1ccc(Cl)cc1)=N[C@@H](CC(=O)NCCCCCNC(=O)c1ccc(O)c(O)c1)c1nnc(C)n1-2 and give its measured IC50.
50 to 1000 nM

Consider the compound CCNC(=O)C[C@@H]1N=C(c2ccc(Cl)cc2)c2cc(OCCNC(=O)c3ccc(O)c(O)c3)ccc2-n2c(C)nnc21 and give its measured IC50.
1000 to 30000 nM

Consider the compound COc1ccc2c(c1)C(c1ccc(Cl)cc1)=N[C@@H](CC(=O)NCCCNC(=O)c1ccc(O)c(O)c1)c1nnc(C)n1-2 and give its measured IC50.
50 to 1000 nM

Consider the compound COc1ccc2c(c1)C(c1ccc(Cl)cc1)=N[C@@H](CC(=O)NCc1ccc(O)c(O)c1)c1nnc(C)n1-2 and give its measured IC50.
50 to 1000 nM

Consider the compound COc1ccc2c(c1)C(c1ccc(Cl)cc1)=N[C@@H](CC(=O)NCCNC(=O)c1cccc(O)c1O)c1nnc(C)n1-2 and give its measured IC50.
50 to 1000 nM

Consider the compound CCNC(=O)C[C@@H]1N=C(c2ccc(Cl)cc2)c2cc(OCCCCNC(=O)c3cccc(O)c3O)ccc2-n2c(C)nnc21 and give its measured IC50.
1000 to 30000 nM

Consider the compound CCNC(=O)C[C@@H]1N=C(c2ccc(Cl)cc2)c2cc(OCCCC(=O)Nc3ccc(O)c(O)c3)ccc2-n2c(C)nnc21 and give its measured IC50.
50 to 1000 nM
